Origin of measurements: ChEMBL document CHEMBL1126708

# System: Rattus norvegicus
# TEST_PROTOCOL: In vivo change in plasma total cholesterol in cholic acid (0.3%)-cholesterol (1.5%)-peanut oil(5.5%) fed rats dosed at 0.05% of diet.
REPORTED_ENDPOINT: Change (%)
Expressed in %, but write only the number.

Below, each entry is followed by its recorded Change result.
COMPOUND_STRUCTURE	Change / %
CCCCCCCC/C=C\CCCCCCCCNC(=O)Nc1c(Cl)cccc1Cl	-47
CCCCCCCCCCC(C)(C)NC(=O)Nc1c(C(C)C)cccc1C(C)C	-60
CCCCCCCCCCCCCCNC(=O)Nc1c(C)cccc1Cl	0

Now for the compound whose Change we want.
**Q:** Look up Change: CCCCCCCC/C=C\CCCCCCCCNC(=O)Nc1c(C(C)C)cccc1C(C)C
**A:** -45

====

# TESTED_SYSTEM: O-acyltransferase (Oryctolagus cuniculus, UniProt G1SFD9)
# Sequence (G1SFD9 1-524): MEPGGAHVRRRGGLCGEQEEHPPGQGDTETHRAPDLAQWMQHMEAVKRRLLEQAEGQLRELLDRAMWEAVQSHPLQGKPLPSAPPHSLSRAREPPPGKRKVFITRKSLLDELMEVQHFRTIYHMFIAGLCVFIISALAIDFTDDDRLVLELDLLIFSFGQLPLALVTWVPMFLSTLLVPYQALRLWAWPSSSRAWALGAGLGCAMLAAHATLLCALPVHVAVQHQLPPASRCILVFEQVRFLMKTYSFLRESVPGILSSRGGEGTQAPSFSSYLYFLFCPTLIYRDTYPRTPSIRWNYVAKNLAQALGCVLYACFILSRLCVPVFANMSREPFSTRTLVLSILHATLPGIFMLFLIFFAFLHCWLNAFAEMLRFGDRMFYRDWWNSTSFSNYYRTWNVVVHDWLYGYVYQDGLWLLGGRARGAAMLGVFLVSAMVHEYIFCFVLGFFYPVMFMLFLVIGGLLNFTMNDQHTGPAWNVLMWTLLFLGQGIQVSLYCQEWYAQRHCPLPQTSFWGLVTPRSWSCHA
# TEST_PROTOCOL: Acyl coenzyme A:cholesterol acyltransferase (ACAT), inhibition by incubation with [1-14C]oleolyl-CoA and intestinal microsomes isolated from intestinal mucosa of cholesterol-fed rabbits
pIC50: −log10 of the molar value.
REPORTED_ENDPOINT: pIC50

Below, each entry is followed by its recorded pIC50 result.
COMPOUND_STRUCTURE	TESTED_SYSTEM	REPORTED_ENDPOINT	MEASURED_VALUE
CCCCCCCCCCCCCCCCCCNC(=O)NCc1c(OC)cc(OC)cc1OC	O-acyltransferase (Oryctolagus cuniculus, UniProt G1SFD9)	pIC50	< 5.30
CCCCCCCCCCCCCCCCCC(=O)Oc1c(C)cccc1C	O-acyltransferase (Oryctolagus cuniculus, UniProt G1SFD9)	pIC50	< 5.00
CCCCCCCC/C=C\CCCCCCCCOC(=O)c1c(OC)cc(OC)cc1OC	O-acyltransferase (Oryctolagus cuniculus, UniProt G1SFD9)	pIC50	< 5.30
CCCCCCCCCCCCCCCCCCNC(=O)c1c(C)cccc1C	O-acyltransferase (Oryctolagus cuniculus, UniProt G1SFD9)	pIC50	< 5.00
CCCCCCCCCCCCCCCCCCOc1c(C)cccc1C	O-acyltransferase (Oryctolagus cuniculus, UniProt G1SFD9)	pIC50	< 5.00

**Q:** Look up pIC50: CCCCCCCC/C=C\CCCCCCCCOC(=O)Nc1c(OC)cc(OC)cc1OC
**A:** 6.07

**Q:** Entry to check: CCCCCCCC/C=C\CCCCCCCCNC(=O)Nc1ccc(Oc2ccccc2)cc1
**A:** < 5.30

**Q:** Entry to check: CCCCCCCCCCCCCCNC(=O)Nc1cccc(C(F)(F)F)c1
**A:** < 5.60

**Q:** Entry to check: CCCCCCCCCCCCCCCCCCOC(=O)Nc1c(C)cccc1C
**A:** < 5.00

====

Reported Change values for the following compounds.
# Test system: Rattus norvegicus
# TEST_PROTOCOL: In vivo change in plasma total cholesterol in cholic acid (0.3%)-cholesterol (1.5%)-peanut oil(5.5%) fed rats dosed at 0.05% of diet.
Expressed in %, but write only the number.

Below, each entry is followed by its recorded Change result.
COMPOUND_STRUCTURE	Change (%)
CCCCCCCCCCNC(=O)Nc1c(CC)cccc1C(C)C	-61
CCCCCCCC/C=C\CCCCCCC/C(S)=N/c1c(OC)cc(OC)cc1OC	-22
CCCCCCCCCCC(C)(C)NC(=O)Nc1c(CC)cccc1CC	-60
CCCCCCCC/C=C\CCCCCCCCNC(=O)Nc1c(C)cccc1C	-55
CCCCCCCCCCCCCCNC(=O)Nc1c(CC)cccc1C(C)C	-41

Now for the compound whose Change we want.
**Q:** Look up Change: CCCCCCCC/C=C/CCCCCCCC(=O)Nc1c(OC)cc(OC)cc1OC
**A:** -38
